- Target under test: Protein kinase C alpha type (Homo sapiens); note: in the data inactive means no Kd found up to 30 µM
The source made the active and inactive calls.
Write down the outcome that applies. Available outcomes: True = active, False = inactive

Field: example entries. Status: answers known.
COc1cc2ncnc(Nc3ccc(F)c(Cl)c3)c2cc1NC(=O)/C=C/CN1CCCCC1 [DACOMITINIB ANHYDROUS] : False
CN(C)C/C=C/C(=O)Nc1cc2c(Nc3ccc(F)c(Cl)c3)ncnc2cc1O[C@H]1CCOC1 : False

Problem: For this compound, state the assay outcome: CCOc1ccn(-c2ccc(F)cc2)c(=O)c1C(=O)Nc1ccc(Oc2ccnc(N)c2Cl)c(F)c1
Result: False

Problem: Could you please tell me the result logged for CC1(COc2ccc3c(c2)ncn3-c2ccc3cccc(N4CCC(N)CC4)c3n2)COC1 in this assay?
Result: False

Problem: What did the test return for COc1cc2ncnc3c2cc1OCCCCCN(C)Cc1ccc(Br)cc1N3 ?
Result: False
